study.system: hPDI b’x (Homo sapiens, UniProt P07237)
Construct: There is also a short 19 amino acid x-linker region between the b’ and a’ domains; made in house; host or cells: E. coli
Sequence (P07237 230-368 limits assumed): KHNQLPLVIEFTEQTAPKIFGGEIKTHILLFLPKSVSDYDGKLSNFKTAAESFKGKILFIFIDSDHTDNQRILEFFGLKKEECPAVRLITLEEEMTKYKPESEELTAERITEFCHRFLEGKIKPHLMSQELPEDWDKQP
method.summary: Protein-observe 15N,1H-HSQC NMR titration (chemical shift perturbation, Kd)
Type: binding
test.context: 15N,1H-HSQC; constant 0.25 mM 15N b’x, varying peptide (ratios 1:4 to 2.5:1); 310 K (37 °C); 20 mM sodium phosphate pH 7.0, 50 mM NaCl, 5% D6-DMSO; average of individual residue fits; ± standard error of Levenberg-Marquardt fit; read-out: Dissociation constant (Kd), PROTEIN 15N/1H Tracked
No end group written: not given here.
property: pKd
In simple prose, pKd is minus the logarithm base ten of a concentration in moles per litre.

{"columns": ["residue.string", "study.system", "property", "observed"],
 "data": [
  ["AGSKNFFWKTFTSS [Δ-som, Δ-somatostatin]", "hPDI b’x (Homo sapiens, UniProt P07237)", "pKd", 3.99],
  ["AGSKNFAWKTFTSS [Phe7 → Ala Δ-som]", "hPDI b’x (Homo sapiens, UniProt P07237)", "pKd", 3.91],
  ["AGSKNAAWKTFTSS [Phe6,7 → Ala Δ-som]", "hPDI b’x (Homo sapiens, UniProt P07237)", "pKd", 3.62],
  ["AGSKNFAWKTATSS [Phe7,11 → Ala Δ-som]", "hPDI b’x (Homo sapiens, UniProt P07237)", "pKd", 3.39],
  ["AGSKNFFWKTATSS [Phe11 → Ala Δ-som]", "hPDI b’x (Homo sapiens, UniProt P07237)", "pKd", 3.58],
  ["AGSKNAFWKTFTSS [Phe6 → Ala Δ-som]", "hPDI b’x (Homo sapiens, UniProt P07237)", "pKd", 3.70]
]}

Name the recorded pKd for AGSKNAFWKTATSS [Phe6,11 → Ala Δ-som] . 3.23
